- System: Staphylococcus aureus
- measurement.protocol: Antibacterial activity against Staphylococcus aureus SH1000 cultured in iron depleted media assessed as reduction in bacterial cell growth
- Assay type: functional

{"molecular.string": "CCCCCCCCCC[C@H](O)C[C@H](O)[C@H](CC(C)C)[C@H](O)c1cc(O)cc(O)c1", "study.target": "Staphylococcus aureus", "result.modifier": "=", "MIC (µM)": 8}
{"molecular.string": "CCC(=O)CCCCCCC[C@H](O)C[C@H](O)[C@H](CC(C)C)[C@H](O)c1cc(O)cc(O)c1", "study.target": "Staphylococcus aureus", "result.modifier": "=", "MIC (µM)": 250}
{"molecular.string": "CC[C@H](O)C[C@H](O)[C@H](CC(C)C)[C@H](O)c1cc(O)cc(O)c1", "study.target": "Staphylococcus aureus", "result.modifier": ">", "MIC (µM)": 500}
{"molecular.string": "CCC(=O)[C@@H](C)C[C@@H](C)C[C@@H](C)CC[C@H](O)CC(=O)[C@H](CC(C)C)[C@H](O)c1cc(O)cc(O)c1", "study.target": "Staphylococcus aureus", "result.modifier": "=", "MIC (µM)": 63}
{"molecular.string": "CC(C)C[C@H]([C@H](O)c1cc(O)cc(O)c1)[C@@H](O)C[C@@H](O)CC[C@H](C)C[C@H](C)C[C@H](C)CO", "study.target": "Staphylococcus aureus", "result.modifier": "=", "MIC (µM)": 500}
{"molecular.string": "CCC(=O)[C@@H](C)C[C@@H](C)C[C@@H](C)CC[C@H](O)C[C@H](O)[C@H](CC(C)C)[C@H](O)c1cc(O)cc(O)c1", "study.target": "Staphylococcus aureus", "result.modifier": "=", "MIC (µM)": 125}

###

- Test system: P388
- measurement.protocol: Antiproliferative activity against mouse P388 cells assessed as cell viability by WST-8 colorimetric assay
- Format: functional, cell-based
pIC50: −log10 of the molar value.

{"molecular.string": "CCC[C@H]1C[C@@H](OC)C[C@H](C)C[C@@H]2C[C@@H](OC(=O)/C=C\\CCc3coc(/C=C\\CNC(=O)OC)n3)C[C@H](CC(=O)O1)O2", "pIC50": 9.14}

###

- measurement.protocol: Activation of hypoxia-induced HIF-1 in human T47D cells
- Assay type: cell-based
pIC50: −log10 of the molar value.

{"molecular.string": "C=C[C@@H]1CSC(C[C@@H](C)[C@@H](C)C[C@H](C)CCN(C)C(=O)[C@H](C)CC)=N1", "pIC50": 8.25}

###

- Tested on: Staphylococcus aureus
- measurement.protocol: Antibacterial activity against Staphylococcus aureus SH1000 cultured in iron depleted media assessed as reduction in bacterial cell growth
- Type: functional
MIC by entry:
observation.type: MIC (µM)

{"molecular.string": "CC(=O)[C@@H](C)C[C@@H](C)C[C@@H](C)CC[C@H](O)C[C@H](O)[C@H](CC(C)C)[C@H](O)c1cc(O)cc(O)c1", "result.modifier": "=", "observed.measurement": 500}
{"molecular.string": "CCC(=O)[C@@H](C)C[C@@H](C)C[C@@H](C)CC[C@H](O)C[C@H](O)[C@H](CC(C)C)[C@H](O)c1cc(OC)cc(OC)c1", "result.modifier": ">", "observed.measurement": 500}
{"molecular.string": "CCCC(=O)[C@@H](C)C[C@@H](C)C[C@@H](C)CC[C@H](O)C[C@H](O)[C@H](CC(C)C)[C@H](O)c1cc(O)cc(O)c1", "result.modifier": "=", "observed.measurement": 63}
{"molecular.string": "CCC(=O)[C@@H](C)C[C@@H](C)C[C@@H](C)CC[C@H](O)C[C@H](O)[C@@H](CC(C)C)[C@H](O)c1cc(O)cc(O)c1", "result.modifier": "=", "observed.measurement": 125}
